FYI, the data here is from patent US20260015350A1.

- Assayed System: KRas^G12C (Homo sapiens, UniProt P01116, G12C)
- Construct: Biotinylated KRas (corresponding to amino acids 1-169, produced at Accelegan Inc.); biotin (biotinylated); purchased Accelegan Inc
- Sequence (P01116 1-169 isoform P01116-2 G12C): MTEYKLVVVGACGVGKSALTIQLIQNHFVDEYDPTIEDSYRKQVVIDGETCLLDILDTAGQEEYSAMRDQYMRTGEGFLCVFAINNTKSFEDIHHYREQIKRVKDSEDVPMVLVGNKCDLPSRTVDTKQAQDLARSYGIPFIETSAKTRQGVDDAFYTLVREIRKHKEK
- Assay Remarks: KRas binding assay (TR-FRET tracer displacement), KRas G12C
- Condition: single point, 10 nM compound, TR-FRET

# Molecule, inhibition at 0.01 µM
data = [
    ("CCc1c(F)ccc2cc(O)cc(-c3ncc4c(N5CCC[C@]6(C5)C[C@@H](O)C6)nc(OC[C@@]56CCCN5[C@H](COC(=O)N(C)C)CC6)nc4c3F)c12", "81%"),
    ("CCc1c(F)ccc2cc(O)cc(-c3ncc4c(N5CCCn6nc(C(=O)N(C)C)cc6C5)nc(OC[C@]56CCCN5[C@H](COC(=O)N(C)C)CC6)nc4c3F)c12", "94%"),
    ("CCc1c(F)ccc2cc3[nH]ncc3c(-c3ncc4c(N5CCC[C@@](C)(O)C5)nc(OC[C@@]56CCCN5C[C@H](F)C6)nc4c3F)c12", "85%"),
    ("CCc1c(F)ccc2cc(O)cc(-c3ncc4c(N5C[C@@H]6C[C@H](C5)[C@H](O)[C@@H]6O)nc(OC[C@@]56CCCN5C[C@H](F)C6)nc4c3F)c12", "96%"),
    ("CCc1cccc2cc3[nH]ncc3c(-c3ncc4c(N5C[C@@H]6C[C@H](C5)[C@H](O)C6)nc(OC[C@@]56CCCN5C[C@H](F)C6)nc4c3F)c12", "58%"),
    ("CCc1c(F)ccc2cc(O)cc(-c3ncc4c(N5CCC[C@@](C)(O)C5)nc(OC[C@@]56CCCN5[C@H](COC(=O)NC)CC6)nc4c3F)c12", "89%"),
    ("CCc1c(F)ccc2cc(O)cc(-c3ncc4c(N5CCC[C@@](C)(O)C5)nc(OC[C@@]56CCCN5[C@H](COC(=O)NC(C)C)CC6)nc4c3F)c12", "96%"),
    ("CCc1c(F)ccc2cc(O)cc(-c3ncc4c(N5CCCCn6nc(C(=O)N7CCOCC7)cc6C5)nc(OC[C@@]56CCCN5C[C@H](F)C6)nc4c3F)c12", "97%"),
    ("CCc1c(F)ccc2cc(O)cc(-c3ncc4c(N5CCOCC(C)(O)C5)nc(OCC56CCCN5[C@H](COC(=O)N(C)C)CC6)nc4c3F)c12 (stereo in doubt)", "88%"),
    ("CCc1c(F)ccc2cc(O)cc(-c3ncc4c(N5CCCCn6nc(C(=O)N(C)C)cc6C5)nc(OC[C@@]56CCCN5C[C@H](F)C6)nc4c3F)c12", "98%"),
    ("CCc1c(F)ccc2cc(O)cc(-c3ncc4c(N5CCCC6(CCS(=O)(=O)N6)C5)nc(OC[C@@]56CCCN5C[C@H](F)C6)nc4c3F)c12 (some centres unmarked)", "99%"),
    ("CCc1c(F)ccc2cc(O)cc(-c3ncc4c(N5CC6CC(O)C(C6)C5)nc(OC[C@]56CCCN5[C@H](COC(=O)N(C)C)CC6)nc4c3F)c12 (some centres unmarked)", "84%"),
    ("CCNC(=O)OC[C@@H]1CC[C@]2(COc3nc(N4CCC[C@@](C)(O)C4)c4cnc(-c5cc(O)cc6ccc(F)c(CC)c56)c(F)c4n3)CCCN12", "93%"),
    ("CCc1c(F)ccc2cc(O)cc(-c3ncc4c(N5CCC[C@]6(CCO6)C5)nc(OCC5(CN(C)C)CC5)nc4c3F)c12", "96%"),
    ("C#Cc1c(F)ccc2cc(O)cc(-c3ncc4c(N5CCC[C@@](C)(O)C5)nc(OCC5(CN6CCCC6)CC5)nc4c3F)c12", "99%"),
    ("CCc1c(F)ccc2cc(O)cc(-c3ncc4c(N5CCCn6nncc6C5)nc(OC[C@@]56CCCN5C[C@H](F)C6)nc4c3F)c12", "76%"),
    ("CCc1c(F)ccc2cc(O)cc(-c3ncc4c(N5CCC[C@]6(C5)C[C@H](O)C6)nc(OC[C@@]56CCCN5[C@H](COC(=O)N(C)C)CC6)nc4c3F)c12", "94%"),
    ("CCc1c(F)ccc2cc(O)cc(-c3ncc4c(N5CC6CCC(C5)C6C#N)nc(OC[C@@]56CCCN5C[C@H](F)C6)nc4c3F)c12 (some centres unmarked)", "89%"),
    ("CCc1c(F)ccc2cc(O)cc(-c3ncc4c(N5CCC[C@@](C)(O)C5)nc(OC[C@@]56CCCN5[C@H](COC(=O)N5CCCC5)CC6)nc4c3F)c12", "97%"),
    ("CCc1c(F)ccc2cc(O)cc(-c3ncc4c(N5CCCn6nc(C(=O)N(C)C)c(C)c6C5)nc(OC[C@@]56CCCN5C[C@H](F)C6)nc4c3F)c12", "99%"),
    ("CCc1c(F)ccc2cc(O)cc(-c3ncc4c(N5CCCC6(C5)NC(=O)NC6=O)nc(OC[C@]56CCCN5[C@H](COC(=O)N(C)C)CC6)nc4c3F)c12 (some centres unmarked)", "95%"),
    ("CCc1c(F)ccc2cc(O)cc(-c3ncc4c(N5CCC[C@@]6(CCO6)C5)nc(OCC5(CN(C)C)CC5)nc4c3F)c12", "97%"),
    ("CCc1c(F)ccc2cc(O)cc(-c3ncc4c(N5CCC(O)c6nn(C(=O)N(C)C)cc6C5)nc(OC[C@@]56CCCN5C[C@H](F)C6)nc4c3F)c12 (some centres unmarked)", "98%"),
]

====

- Assayed System: KRas^G12D (Homo sapiens, UniProt P01116, G12D)
- Construct: Biotinylated KRas (corresponding to amino acids 1-169, produced at Accelegan Inc.); biotin (biotinylated); purchased Accelegan Inc
- Sequence (P01116 1-169 isoform P01116-2 G12D): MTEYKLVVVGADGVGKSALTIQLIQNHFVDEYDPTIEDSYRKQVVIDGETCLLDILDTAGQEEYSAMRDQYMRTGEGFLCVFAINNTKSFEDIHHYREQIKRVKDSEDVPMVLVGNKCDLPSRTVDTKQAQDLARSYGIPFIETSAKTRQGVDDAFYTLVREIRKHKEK
- Assay Remarks: KRas binding assay (TR-FRET tracer displacement), KRas G12D
Entries and their IC50 values follow.

# Compound, Assayed System, IC50
rows = [
    ("CN(C)C(=O)c1cc2n(n1)CCCN(c1nc(OCC34CCCN3CCC4)nc3c(F)c(-c4c5ccccc5cc5[nH]ncc45)ncc13)C2 [Example 757]", "KRas^G12D (Homo sapiens, UniProt P01116, G12D)", "12 nM"),
    ("CCc1c(F)ccc2cc(O)cc(-c3ncc4c(NCc5cc(C(=O)N(C)C)nn5[C@H]5C[C@H](O)C5)nc(OC[C@@]56CCCN5C[C@H](F)C6)nc4c3F)c12 [Example 682]", "KRas^G12D (Homo sapiens, UniProt P01116, G12D)", "710 nM"),
    ("CCc1c(F)ccc2cc(O)cc(-c3ncc4c(N5CC6CCC(CO)(C6)C5)nc(OC[C@@]56CCCN5C[C@H](F)C6)nc4c3F)c12 (stereo partly drawn) [Example 812]", "KRas^G12D (Homo sapiens, UniProt P01116, G12D)", "12 nM"),
    ("CCc1c(F)ccc2cc(O)cc(-c3ncc4c(N5CCC[C@@](C)(O)C5)nc(OC[C@@]56CCCN5[C@H](COCC5CC5)CC6)nc4c3F)c12 [Example 870]", "KRas^G12D (Homo sapiens, UniProt P01116, G12D)", "< 2 nM"),
    ("Cc1cc2[nH]nnc2c(-c2ncc3c(N4CCC[C@@](C)(O)C4)nc(OC[C@@]45CCCN4C[C@H](F)C5)nc3c2F)c1C [Example 821]", "KRas^G12D (Homo sapiens, UniProt P01116, G12D)", "3890 nM"),
    ("Oc1cc(Cl)c(C2CC2)c(-c2ncc3c(N4C[C@H]5C[C@@H](C4)[C@H](O)C5)nc(OCC45CCCN4CCC5)nc3c2F)c1 [Example 738]", "KRas^G12D (Homo sapiens, UniProt P01116, G12D)", "17 nM"),
    ("CCc1c(F)ccc2cc(O)cc(-c3ncc4c(N5CCCC6(CC(=O)N6)C5)nc(OC[C@]56CCCN5[C@H](COC(=O)N(C)C)CC6)nc4c3F)c12 (stereo partly drawn) [Example 715]", "KRas^G12D (Homo sapiens, UniProt P01116, G12D)", "4 nM"),
    ("CCc1c(F)ccc2cc(O)cc(-c3ncc4c(NCc5cc(C(=O)N(C)C)n([C@H]6C[C@H](O)C6)n5)nc(OC[C@@]56CCCN5C[C@H](F)C6)nc4c3F)c12 [Example 680]", "KRas^G12D (Homo sapiens, UniProt P01116, G12D)", "473 nM"),
    ("CCc1c(F)ccc2cc(O)cc(-c3ncc4c(N5CCCn6nc(C(=O)N(C)C)c(C)c6C5)nc(OC[C@@]56CCCN5C[C@H](F)C6)nc4c3F)c12 [Example 670]", "KRas^G12D (Homo sapiens, UniProt P01116, G12D)", "< 2 nM"),
    ("C#Cc1c(F)ccc2cc(O)cc(-c3ncc4c(N5CCC[C@@](C)(O)C5)nc(OCC5(CN6CCCC6)CC5)nc4c3F)c12 [Example 752]", "KRas^G12D (Homo sapiens, UniProt P01116, G12D)", "< 2 nM"),
    ("CCc1c(F)ccc2cc(O)cc(-c3ncc4c(N5CCOCC6(CNC(=O)N6)C5)nc(OC[C@@]56CCCN5C[C@H](F)C6)nc4c3F)c12 (stereo partly drawn) [Example 898]", "KRas^G12D (Homo sapiens, UniProt P01116, G12D)", "< 2 nM"),
    ("Oc1cc(-c2ncc3c(N4C[C@@H]5C[C@H](C4)[C@H](O)C5)nc(OC[C@@]45CCCN4C[C@H](F)C5)nc3c2F)c2ccccc2c1Br [Example 781]", "KRas^G12D (Homo sapiens, UniProt P01116, G12D)", "2450 nM"),
]
